Just for reference, PubChem BioAssay AID1996 is where these values come from.

molecules and their reported solubility kinetic
# CONDITION_SUMMARY: buffer; pH 7.4; 200.0 µM

1. Cc1ccc(C(=O)NCCNC(=O)c2ccc(C)nc2)cc1 : > 44.6 µg/mL
2. O=C(O)CCCCNS(=O)(=O)/C=C/c1ccccc1 : > 42.5 µg/mL
3. COC(=O)C1CSC(C)(C)C(=O)N1 (configuration not stated) : > 30.5 µg/mL

Qu. For CC(OC(=O)C1=COCCO1)C(=O)NC1CCCCC1C (configuration not stated) , what is its reported solubility kinetic?
Ans. > 44.6 µg/mL

Qu. For COc1ccc(C(=O)NCC(=O)NCc2ccncc2)cc1 , what is its reported solubility kinetic?
Ans. > 44.9 µg/mL

Qu. For Cn1cc(S(=O)(=O)N2CCCC(C(=O)O)C2)cn1 (configuration not stated) , what is its reported solubility kinetic?
Ans. > 41 µg/mL

Qu. For CC(C)=NN1C(c2nonc2N)=NOC1(C)C , what is its reported solubility kinetic?
Ans. > 35.7 µg/mL

###

# CONDITION_SUMMARY: buffer; pH 7.4; 200.0 µM
OBSERVABLE: solubility kinetic

The following molecules have reported results that may help.
1) Cc1oc(CC(C)C)cc1C(=O)NCCCC(=O)O : > 40.1 µg/mL
2) COC(=O)C1CC(=O)N(Cc2ccccc2)C1 (centres undefined) : > 35 µg/mL
3) CCCN(Cc1ccccc1)C(=S)Nc1cccc(C)c1C : < 0.3 µg/mL
4) O=C(COC(=O)C(CO)NS(=O)(=O)c1ccc(Br)cc1)Nc1ccc2c(c1)OCCO2 (centres undefined) : > 77.3 µg/mL
5) C=CCc1ccccc1OCC(O)CNC1CCCC1.Cl (centres undefined) : > 46.8 µg/mL
6) COC(=O)c1ccc(NC(=O)C(=O)c2c[nH]c3ccccc23)cc1 : < 0.3 µg/mL

Qu. For O=C(NC(=S)NC1CCCc2ccccc21)c1ccc(F)cc1 (centres undefined) , what is its reported solubility kinetic?
Ans. < 0.4 µg/mL

Qu. For N#Cc1c(Cl)nc2c(c1C#N)CCCC2 , what is its reported solubility kinetic?
Ans. > 32.6 µg/mL

Qu. For CCCOc1ccc(N2C(=O)CC(N(CCCO)C(=O)CC)C2=O)cc1 (centres undefined) , what is its reported solubility kinetic?
Ans. > 54.4 µg/mL

###

# CONDITION_SUMMARY: buffer; pH 7.4; 200.0 µM
OBSERVABLE: solubility kinetic

1. O=[N+]([O-])c1ccc(N2CCOCC2)c2cccnc12 : > 38.9 µg/mL

Qu. For Cc1onc(-c2c(F)cccc2Cl)c1C(=O)N(C)C1CCCCC1 , what is its reported solubility kinetic?
Ans. > 52.6 µg/mL

Qu. For COc1ccc(C(=O)NCc2ccc3c(c2)OCO3)c(OC)c1 , what is its reported solubility kinetic?
Ans. > 47.3 µg/mL

Qu. For O=C(c1ccc(Cl)cc1Cl)N1CCSCC1 , what is its reported solubility kinetic?
Ans. > 41.4 µg/mL

Qu. For O=C(Nc1ccc2c(c1)CCC2)Nc1ccc(F)cc1F , what is its reported solubility kinetic?
Ans. < 0.3 µg/mL

Qu. For Cc1cc(C)nc(NC(=O)c2ccc(Br)cc2)n1 , what is its reported solubility kinetic?
Ans. > 45.9 µg/mL

Qu. For CC(C)Cn1c(SCC(=O)N2CCc3ccccc3C2)nc(O)cc1=O , what is its reported solubility kinetic?
Ans. > 56 µg/mL
